ASSAY REMARKS: Systemic bioavailability in rat
Type: ADME, organism-based
CONDITION INFO: in vivo
MEASUREMENT LABEL: bioavailability

Query: Query (compound): `CC1(C)CC(C)(C)c2cc(NC(=S)Nc3ccc([N+](=O)[O-])cc3)ccc2S1` ; field requested: bioavailability
Reply: < 1%

====

ASSAY REMARKS: Protein binding in plasma (unknown origin)
Assay type: ADME, cell-free
CONDITION INFO: read-out: PPB (converted)
MEASUREMENT LABEL: fraction unbound
Enter a number only.

Query: Query (compound): `CC1(C)CC(C)(C)c2cc(NC(=S)Nc3ccc([N+](=O)[O-])cc3)ccc2S1` ; field requested: fraction unbound
Reply: 0.007
